# Tested on: Caco-2
# test_description: cell viability relative to DMSO; higher = less toxic
# test_parameters: 72 h; 10000 nM
endpoint_label: cell viability (%)
The answer is to be given in %; state only the numeric part.

In: Query (compound): `CNNCc1ccc(C(=O)NC(C)C)cc1` ; field requested: cell viability
Out: 87.4

In: Query (compound): `C=CC1=C(C)c2cc3[nH]c(cc4nc(cc5[nH]c(cc1n2)c(C)c5CCC(=O)O)C(CCC(=O)O)=C4C)c(C)c3C=C` ; field requested: cell viability
Out: 76.4

In: Query (compound): `CNc1cc2[nH]c(=O)n(-c3ccc(NC(=O)NS(=O)(=O)c4ccc(Cl)s4)cc3)c(=O)c2cc1F` ; field requested: cell viability
Out: 101

In: Query (compound): CC1=C(C)C(=O)C(C(CCCCCC(=O)O)c2ccccc2)=C(C)C1=O (stereo not drawn) ; field requested: cell viability
Out: 95.3

In: Query (compound): `O=C(Nc1ccc(C(F)(F)F)cn1)N1CCN(c2ncccc2C(F)(F)F)CC1` ; field requested: cell viability
Out: 92.1

In: Query (compound): `O=C1NC(=O)/C(=C/c2ccc3c(c2)OC(F)(F)O3)S1` ; field requested: cell viability
Out: 35.1

In: Query (compound): CN1c2ccccc2C(=O)N2CCc3c([nH]c4ccccc34)C21 (stereo in doubt) ; field requested: cell viability
Out: 55.7

In: Query (compound): `c1ccc2cc(C3=NCCN3)ncc2c1` ; field requested: cell viability
Out: 101

In: Query (compound): `CCO[C@@H]1OC(=O)C[C@@H]1NC(=O)[C@@H]1CCCN1C(=O)[C@@H](NC(=O)c1ccc(N)c(Cl)c1)C(C)(C)C` ; field requested: cell viability
Out: 86

In: Query (compound): O[C@H]([C@H](O)[C@@H]1CO1)[C@H]1CO1 [dianhydrogalactitol] ; field requested: cell viability
Out: 95.7

In: Query (compound): `Nc1cc(F)ccc1NC(=O)/C=C/c1cnn(C/C=C/c2ccccc2)c1` ; field requested: cell viability
Out: 76.7

In: Query (compound): Cc1cccc(C)c1NC(=O)c1ccc(N)cc1 [ameltolide] ; field requested: cell viability
Out: 85.4

In: Query (compound): COc1ccc2c(c1)C(C(=O)N(Cc1ccc(N(C)C)cc1)c1ccc(C(C)C)cc1)CCC2 (stereo not drawn) ; field requested: cell viability
Out: 75.5

In: Query (compound): `COc1ccc(Oc2c(Cl)cnn(C3c4ccccc4-c4ccccc43)c2=O)cc1` ; field requested: cell viability
Out: 88.7

In: Query (compound): `N#C/C(=C\c1cccn1S(=O)(=O)c1cccc([N+](=O)[O-])c1)S(=O)(=O)c1ccc(F)cc1` ; field requested: cell viability
Out: 84.8

In: Query (compound): `FC(F)(F)c1cccc(C2=CCN(CCc3ccc4ccccc4c3)CC2)c1` ; field requested: cell viability
Out: 107

In: Query (compound): COc1ccc(C2CC(c3c(O)cc(C)oc3=O)=NCCS2)c(OC)c1 (stereo not drawn) ; field requested: cell viability
Out: 47.4

In: Query (compound): `COC1=C(OC)C(=O)C(CCCCCCCCCCO)=C(C)C1=O` ; field requested: cell viability
Out: 88.6

###

# Tested on: HepG2
# test_description: drug sensitivity score (DSS) for viability; higher = more toxic; extreme values may be limits of the assay
# test_parameters: 72 h
endpoint_label: drug sensitivity score

In: Query (compound): O=C(COP(=O)(O)O)[C@@H](O)[C@H](O)[C@H](O)COP(=O)(O)O [fosfructose] ; field requested: drug sensitivity score
Out: 0

In: Query (compound): Nc1c(CC(=O)O)cccc1C(=O)c1ccc(Br)cc1 [bromfenac] ; field requested: drug sensitivity score
Out: 0

In: Query (compound): O=C(CCCN1CCC2(CC1)C(=O)NCN2c1ccccc1)c1ccc(F)cc1 [spiperone] ; field requested: drug sensitivity score
Out: 3.2

In: Query (compound): `O=C(Nc1ccccc1Br)N[C@@H]1CCN(c2ccc(C(F)(F)F)cn2)C1` ; field requested: drug sensitivity score
Out: 0

In: Query (compound): c1ccc(Oc2cccnc2)cc1 [CI-844] ; field requested: drug sensitivity score
Out: 0

The reported numbers originate from the supplement of paper PMC13380429.
